Sourced from paper PMC11995831

assay: ABTS radical cation scavenging assay; details: absorbance at 734 nm, 30 μg/mL concentration
Exercise: state measured ABTS radical scavenging (λ734) for each of the compounds provided.

Record excerpt, results attached:
[[record]]
compound = "CCCOS(=O)(=O)N1C(=O)c2ccccc2C1(O)c1ccccc1 (stereo not shown)"
readout = "ABTS radical scavenging (λ734)"
value = "0.802 ± 0.072"

[[record]]
compound = "CCOS(=O)(=O)N1C(=O)c2ccccc2C1(O)c1ccccc1 (stereo not shown)"
readout = "ABTS radical scavenging (λ734)"
value = "0.835 ± 0.024"

[[record]]
compound = "Cc1c(C)c2c(c(C)c1O)CC[C@@](C)(CCC[C@H](C)CCC[C@H](C)CCCC(C)C)O2 [α‐Tokoferol, α‐tocopherol, reference compound]"
readout = "ABTS radical scavenging (λ734)"
value = "0.319 ± 0.101"


Task item: Reported ABTS radical scavenging (λ734) for CCCCOS(=O)(=O)N1C(=O)c2ccccc2C1(O)c1ccccc1 (stereo not shown) : what is it?
Reply: 0.719 ± 0.032
